Type: physicochemical
Conditions used: with Powder III
% AI Retained After One Inch Spray-Bar Rain, M (mean) of 30% or higher: criterion met. Under 30%: criterion not met.

Assess whether reported % AI Retained After One Inch Spray-Bar Rain, M (mean) for CNC(=O)Oc1cccc2ccccc12 sits at 30% or higher.
criterion not met

Try the compound N#CC(CCc1ccc(Cl)cc1)(Cn1cncn1)c1ccccc1 (stereo not drawn)
criterion met

Try the compound CCc1ccc(C(=O)NN(C(=O)c2cc(C)cc(C)c2)C(C)(C)C)cc1 [tebufenozide]
criterion met

Try the compound OC(c1ccc(Cl)cc1)(c1ccc(Cl)cc1)C(Cl)(Cl)Cl
criterion met

Try the compound CN(C)C(CSC(N)=O)CSC(N)=O
criterion not met

Try the compound CNC(=O)Oc1cccc2c1OC(C)(C)C2
criterion not met

###

Assay type: physicochemical
Conditions used: with Powder III
Endpoint label: % AI Retained After One Inch Spray-Bar Rain, M (mean) (%)
Hi! Could you send only the number? It should be in %, unit omitted.

Quick one: % AI Retained After One Inch Spray-Bar Rain, M (mean) for N#Cc1c(Cl)c(Cl)c(Cl)c(C#N)c1Cl ?
4

Try the molecule CCC(=O)Nc1ccc(Cl)c(Cl)c1
21

Try the molecule CCCCC(C#N)(Cn1cncn1)c1ccc(Cl)cc1 (centres unmarked)
44

Try the molecule [Cu+2].[OH-].[OH-] [copper hydroxide]
21

Try the molecule CCOc1cc(Oc2ccc(C(F)(F)F)cc2Cl)ccc1[N+](=O)[O-]
55

###

Type: physicochemical
Conditions used: with Emulsion IV
Endpoint label: % AI Retained After One Inch Spray-Bar Rain, M (mean) (%)
Hi! Could you send only the number? It should be in %, unit omitted.

Quick one: % AI Retained After One Inch Spray-Bar Rain, M (mean) for CN(C)C(CSC(N)=O)CSC(N)=O ?
3

Try the compound CCc1ccc(C(=O)NN(C(=O)c2cc(C)cc(C)c2)C(C)(C)C)cc1 [tebufenozide]
59

Try the compound CNC(=O)Oc1cccc2c1OC(C)(C)C2
9

Try the compound OC(c1ccc(Cl)cc1)(c1ccc(Cl)cc1)C(Cl)(Cl)Cl
95

Try the compound N#CC(CCc1ccc(Cl)cc1)(Cn1cncn1)c1ccccc1 (centres unmarked)
83

Try the compound CNC(=O)Oc1cccc2ccccc12
40

Try the compound CCC(=O)Nc1ccc(Cl)c(Cl)c1
18

Try the compound CCCCC(C#N)(Cn1cncn1)c1ccc(Cl)cc1 (centres unmarked)
74

Try the compound [Cu+2].[OH-].[OH-] [copper hydroxide]
11

Try the compound CCOc1cc(Oc2ccc(C(F)(F)F)cc2Cl)ccc1[N+](=O)[O-]
152

Try the compound N#Cc1c(Cl)c(Cl)c(Cl)c(C#N)c1Cl
12

###

Type: physicochemical
Conditions used: with Powder II
# note: boundary value 30% maps to Not met; % AI Retained After One Inch Spray-Bar Rain, M (mean) below it maps to Met

hey, is % AI Retained After One Inch Spray-Bar Rain, M (mean) for CNC(=O)Oc1cccc2ccccc12 [carbaryl] lower than 30% or not?
Not met

Try the compound CNC(=O)Oc1cccc2c1OC(C)(C)C2 [carbofuran]
Met

Try the compound CCOc1cc(Oc2ccc(C(F)(F)F)cc2Cl)ccc1[N+](=O)[O-] [oxyfluorfen]
Not met

Try the compound CN(C)C(CSC(N)=O)CSC(N)=O [cartap]
Met

Try the compound CCc1ccc(C(=O)NN(C(=O)c2cc(C)cc(C)c2)C(C)(C)C)cc1 [tebufenozide]
Not met

Try the compound CCCCC(C#N)(Cn1cncn1)c1ccc(Cl)cc1 (centres unmarked) [myclobutanil]
Not met

Try the compound OC(c1ccc(Cl)cc1)(c1ccc(Cl)cc1)C(Cl)(Cl)Cl [dicofol]
Not met

Try the compound [Cu+2].[OH-].[OH-] [copper hydroxide]
Not met

Try the compound N#CC(CCc1ccc(Cl)cc1)(Cn1cncn1)c1ccccc1 (centres unmarked) [fenbuconazole]
Not met

Try the compound N#Cc1c(Cl)c(Cl)c(Cl)c(C#N)c1Cl [chlorothalonil]
Not met

Try the compound CCC(=O)Nc1ccc(Cl)c(Cl)c1 [propanil]
Met

###

Type: physicochemical
Conditions used: with Powder I
Endpoint label: % AI Retained After One Inch Spray-Bar Rain, M (mean) (%)
Hi! Could you send only the number? It should be in %, unit omitted.

Quick one: % AI Retained After One Inch Spray-Bar Rain, M (mean) for OC(c1ccc(Cl)cc1)(c1ccc(Cl)cc1)C(Cl)(Cl)Cl [dicofol] ?
76

Try the molecule CCCCC(C#N)(Cn1cncn1)c1ccc(Cl)cc1 (centres unmarked) [myclobutanil]
56

Try the molecule CCOc1cc(Oc2ccc(C(F)(F)F)cc2Cl)ccc1[N+](=O)[O-] [oxyfluorfen]
66

Try the molecule N#Cc1c(Cl)c(Cl)c(Cl)c(C#N)c1Cl [chlorothalonil]
16

Try the molecule [Cu+2].[OH-].[OH-] [copper hydroxide]
22

Try the molecule CCC(=O)Nc1ccc(Cl)c(Cl)c1 [propanil]
38

Try the molecule CCc1ccc(C(=O)NN(C(=O)c2cc(C)cc(C)c2)C(C)(C)C)cc1 [tebufenozide]
71

Try the molecule N#CC(CCc1ccc(Cl)cc1)(Cn1cncn1)c1ccccc1 (centres unmarked) [fenbuconazole]
63

Try the molecule CNC(=O)Oc1cccc2c1OC(C)(C)C2 [carbofuran]
39

Try the molecule CNC(=O)Oc1cccc2ccccc12 [carbaryl]
31

Try the molecule CN(C)C(CSC(N)=O)CSC(N)=O [cartap]
5

###

Format: physicochemical
Conditions used: No Polymer
Endpoint label: % AI Retained After One Inch Spray-Bar Rain, M (mean) (%)
Hi! Could you send only the number? It should be in %, unit omitted.

Quick one: % AI Retained After One Inch Spray-Bar Rain, M (mean) for CN(C)C(CSC(N)=O)CSC(N)=O [cartap] ?
4

Try the compound CCCCC(C#N)(Cn1cncn1)c1ccc(Cl)cc1 (centres unmarked) [myclobutanil]
13

Try the compound N#CC(CCc1ccc(Cl)cc1)(Cn1cncn1)c1ccccc1 (centres unmarked) [fenbuconazole]
9

Try the compound [Cu+2].[OH-].[OH-] [copper hydroxide]
20

Try the compound CCC(=O)Nc1ccc(Cl)c(Cl)c1 [propanil]
9

Try the compound CCc1ccc(C(=O)NN(C(=O)c2cc(C)cc(C)c2)C(C)(C)C)cc1 [tebufenozide]
40

Try the compound CCOc1cc(Oc2ccc(C(F)(F)F)cc2Cl)ccc1[N+](=O)[O-] [oxyfluorfen]
17

Try the compound OC(c1ccc(Cl)cc1)(c1ccc(Cl)cc1)C(Cl)(Cl)Cl [dicofol]
18

Try the compound CNC(=O)Oc1cccc2ccccc12 [carbaryl]
25

Try the compound N#Cc1c(Cl)c(Cl)c(Cl)c(C#N)c1Cl [chlorothalonil]
2

Try the compound CNC(=O)Oc1cccc2c1OC(C)(C)C2 [carbofuran]
3

Source: patent US6436421B1
